Exercise: state measured pIC50 for each of the compounds provided.
# Tested system: LdtMt2 (Mycobacterium tuberculosis, UniProt I6Y9J2)
# Sequence (I6Y9J2 56-408): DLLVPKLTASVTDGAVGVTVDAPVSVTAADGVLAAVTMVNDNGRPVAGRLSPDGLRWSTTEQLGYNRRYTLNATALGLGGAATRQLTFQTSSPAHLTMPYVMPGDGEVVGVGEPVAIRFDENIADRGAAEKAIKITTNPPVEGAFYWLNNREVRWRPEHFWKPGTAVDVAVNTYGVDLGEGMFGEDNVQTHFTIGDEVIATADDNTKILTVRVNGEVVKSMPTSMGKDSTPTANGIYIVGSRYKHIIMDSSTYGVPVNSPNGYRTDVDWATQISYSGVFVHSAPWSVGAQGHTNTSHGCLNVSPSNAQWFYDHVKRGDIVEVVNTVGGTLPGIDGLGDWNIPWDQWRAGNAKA
# Measurement protocol: biochemical
# Format: biochemical
# Design: made in house; host or cells: E. coli
# Condition description: pIC50 LdtMt2 (mean ± SD)
pIC50: −log10 of the molar value.

Need pIC50 for each of these compounds.
1. CO/N=C(\C(=O)N[C@@H]1C(=O)N2C(C(=O)O)=C(COC(C)=O)CS[C@H]12)c1csc(N)n1 [Cefotaxime, reference compound]
2. CC1(C)S[C@@H]2[C@H](NC(=O)C(C(=O)O)c3ccccc3)C(=O)N2[C@H]1C(=O)O (stereo partly drawn) [Carbenicillin, reference compound]
3. CO/N=C(\C(=O)N[C@@H]1C(=O)N2C(C(=O)O)=C(CSC(=O)c3ccco3)CS[C@H]12)c1csc(N)n1 [Ceftiofur, reference compound]
4. CN(C)C(=S)SSC(=S)N(C)C [Thiram, reference compound]

Response:
< 4.00
< 4.00
< 4.00
6.80

For every item in the list below, what is its measured pIC50?
1. O=[Se](O)c1ccccc1 [Benzeneseleninic acid, reference compound]
2. O=C(NC1CCNCC1)[C@@H]1CC[C@@H]2CN1C(=O)N2OS(=O)(=O)O

Response:
1: 5.00; 2: < 4.00
